Data provenance: ChEMBL document CHEMBL5360655

log10 of half-life overview
# procedure.text: Half life in BALB/c mouse at 10 mg/kg, iv measured for 24 hrs by LC-MS/MS analysis
# Format: ADME, organism-based
# measurement.parameters: in vivo
Short version: log10 scale, half-life, min.

Recorded log10 of half-life, per entry:
INSERT INTO measurements (cpd_smiles, value_measured) VALUES
  ('CS(=O)(=O)c1ccc(-c2ncc(C(=O)NCc3cn(-c4cc(Br)ccn4)nn3)s2)cc1', 2.67),
  ('CS(=O)(=O)c1ccc(-c2nc(C(=O)NCc3cn(-c4cc(Br)ccn4)nn3)cs2)cc1', 2.50),
  ('CS(=O)(=O)c1ccc(-c2ncc(C(=O)NCc3cn(-c4cc(Cl)ccn4)nn3)s2)cc1', 2.47),
  ('CS(=O)(=O)c1ccc(-c2nc(C(=O)NCc3cn(-c4cc(Cl)ccn4)nn3)cs2)cc1', 2.07);

// moving on: another record for log10 of half-life
Provide only the value of recorded log10 of half-life for `O=C(NCC1(N2CCN(c3ccccc3)CC2)CCOCC1)c1cccnc1Sc1ccccc1`
1.66
